The entries below pair molecules with pIC50 values for Receptor-type tyrosine-protein kinase FLT3 (Homo sapiens), as found in several publications.
Biological target: Receptor-type tyrosine-protein kinase FLT3 (Homo sapiens)
Sequence (P36888 whole entry): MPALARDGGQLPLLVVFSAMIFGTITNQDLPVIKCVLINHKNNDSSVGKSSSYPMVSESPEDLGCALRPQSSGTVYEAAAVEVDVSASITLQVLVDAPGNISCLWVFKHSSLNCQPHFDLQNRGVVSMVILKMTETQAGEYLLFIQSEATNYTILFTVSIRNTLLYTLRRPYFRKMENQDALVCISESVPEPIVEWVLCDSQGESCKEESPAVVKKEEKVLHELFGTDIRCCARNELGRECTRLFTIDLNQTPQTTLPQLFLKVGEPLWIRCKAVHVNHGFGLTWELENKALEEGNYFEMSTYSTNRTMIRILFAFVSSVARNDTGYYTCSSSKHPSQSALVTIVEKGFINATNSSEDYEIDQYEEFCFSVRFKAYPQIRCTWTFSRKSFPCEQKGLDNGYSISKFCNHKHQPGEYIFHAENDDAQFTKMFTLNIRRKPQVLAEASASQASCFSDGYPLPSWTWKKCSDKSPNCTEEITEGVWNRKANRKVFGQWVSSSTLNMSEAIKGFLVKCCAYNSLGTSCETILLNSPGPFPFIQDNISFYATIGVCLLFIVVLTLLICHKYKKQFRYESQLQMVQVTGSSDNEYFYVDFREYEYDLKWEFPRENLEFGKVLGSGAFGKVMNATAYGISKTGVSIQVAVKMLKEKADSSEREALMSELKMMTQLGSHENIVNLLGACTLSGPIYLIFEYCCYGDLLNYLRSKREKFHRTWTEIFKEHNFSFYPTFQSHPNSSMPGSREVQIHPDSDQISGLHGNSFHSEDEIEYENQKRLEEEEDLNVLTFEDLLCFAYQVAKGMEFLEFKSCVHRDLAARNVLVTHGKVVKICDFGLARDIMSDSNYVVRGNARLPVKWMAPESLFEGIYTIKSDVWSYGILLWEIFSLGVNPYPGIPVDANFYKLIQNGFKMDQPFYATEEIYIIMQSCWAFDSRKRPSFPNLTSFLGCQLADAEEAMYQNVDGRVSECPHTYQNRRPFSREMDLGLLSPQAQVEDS
pIC50: −log10 of the molar value.
Give T when the value for pIC50 is at least 7. Give F when it is less.

Completed entries (count: 5):
>  <molecule>
CNCc1cc(C)c(-c2cc3c(-c4cnn(C)c4)n[nH]c3cn2)c(F)c1

>  <qualitative-label>
F

$$$$
>  <molecule>
CCc1cc2c(Nc3c[nH]nc3C(=O)Nc3ccc(CN4CCN(C)CC4)cc3)ncnc2s1

>  <qualitative-label>
T

$$$$
>  <molecule>
c1cnc2cc(-c3cnnn3C3C4CC5CC(C4)CC3C5)ccc2n1 (stereo not given)

>  <qualitative-label>
F

$$$$
>  <molecule>
COc1ccc2c(c1)/C(=C1/Nc3ccccc3/C1=N\OCCN1CCN(C)CC1)C(=O)N2

>  <qualitative-label>
T

$$$$
>  <molecule>
Cc1ccc(F)c(NC(=O)Nc2ccc(-c3ccc(OCCN4CCOCC4)c4onc(N)c34)cc2)c1

>  <qualitative-label>
T

$$$$

Determine whether this molecule has pIC50 no lower than 7: COc1ccc2c(c1)[C@]1(C[C@H]1c1ccc3c(-c4ccc(N5CCNCC5)cc4)n[nH]c3c1)C(=O)N2 T

Determine whether this molecule has pIC50 no lower than 7: NC(=O)c1c(NC(=O)c2ccc(Oc3ccccc3)cc2)sc2c1CCCC2 F

Determine whether this molecule has pIC50 no lower than 7: CNc1ncc2c(-c3ccc(N4CCN(C)CC4)nc3)nn(Cc3cn(Cc4ccccc4)nn3)c2n1 F

Determine whether this molecule has pIC50 no lower than 7: CC1(COc2ccc(Nc3ncc(C(F)(F)F)c(N[C@H]4CC[C@H](O)CC4)n3)cc2)COC1 T

Determine whether this molecule has pIC50 no lower than 7: CN1CCN(c2ccc(Nc3cc4c(cn3)ncc(=O)n4-c3ccc(CN)cc3)nc2)CC1 F
